These entries and their values trace back to the supplement of paper PMC9170038.

- Tested on: MS2 coat protein
- ASSAY EXPLANATION: apparent KD of MS2 coat protein; designed switch direction (-1 OFF switch, 1 ON switch): 1; higher = weaker reporter binding
- EXPERIMENTAL PARAMETERS: input ligand: FMN 200 uM
READOUT: apparent KD of MS2 coat protein

Known results for sequences:
{"SEQUENCE": "GUGGUCAGACAUGAGGAUCACCCAUGUGGAAUAAAUAAGGGUUAGGAUAUGGAAUAUAGGAUAUACCAGAAGGGAUGGUUGGUG (Eterna round: R96, puzzle: Same State NG 3)", "MEASURED TARGET": "MS2 coat protein", "READOUT": "apparent KD of MS2 coat protein", "TEST VALUE": "123 nM"}
{"SEQUENCE": "UUCUCAUUUACAUGAGGAUCACCCAUGUUUUUAUGUCAGAGAUAGGAUAUAGUUCUCUCGUUUUUCUAGAAGGAUCUUUUUAUU [JR_SSNG3_Sub086] (Eterna round: R96, puzzle: Same State NG 3)", "MEASURED TARGET": "MS2 coat protein", "READOUT": "apparent KD of MS2 coat protein", "TEST VALUE": "65.9 nM"}

Query: Fill in the recorded apparent KD of MS2 coat protein for this sequence, with MS2 coat protein as test system: CCUUAACAGUGAGGAUAUCGUUGCGAUAAGUGACGAGAAGGCACUCAUGUGAAAUAAACAUACAUGAGGAUCACCCAUGUUGUG [Omei SS(NG)1 Bv5] (Eterna round: R96, puzzle: Same State NG 1)
Reply: 34.4 nM

###

- Tested on: MS2 coat protein
- ASSAY EXPLANATION: apparent KD of MS2 coat protein; higher = weaker reporter binding
- EXPERIMENTAL PARAMETERS: Eterna round: R107; input ligand: arginine 13.2 mM
The recorded apparent KD of MS2 coat protein of each item maps onto one of these classes: class 0 (below 20 nM), class 1 (20 nM to below 30 nM), class 2 (30 nM or more)

Completed entries (count: 5):
{"SEQUENCE": "UCGCUCGCCGUAAGGCGAGCGAGUUGCGAUACCAGCCCGGAAACGGGCCCUUGGCAGCGCACAUGAGGAUCACCCAUGUCAUGUU [#1 Exclusion - Theophylline A Attempt #5 (HarryS)]", "CLASS LABEL": "class 0"}
{"SEQUENCE": "GUUAUGGACCUGGAUACCAGCUGGUACAAGGGCGGUCUACAUGAGGAUCACCCAUGUGUCAGCCCUUGGCAGCCAGCAACCGGCA [Teraus]", "CLASS LABEL": "class 0"}
{"SEQUENCE": "UGCCCUGCGAGCGCUCGCAGGGCAGCGGAUACCAGCGAGGUCCAUCGCCCUUGGCAGCCGAACAUGAGGAUCACCCAUGUCGGUG [Same State - Theophylline A Attempt #9 (HarryS)]", "CLASS LABEL": "class 0"}
{"SEQUENCE": "UGGCGAGAAGGAAGGAGCGUCAGCUGAGUUACAUGAGGAUCACCCAUGUUUUACAUUGUGUGACAGGUAGGUCGCCUUCUGCCCU [SS-ArgB20]", "CLASS LABEL": "class 0"}
{"SEQUENCE": "ACCUACACGGAGACGUGUAGGAGUAAUGAUACCAGCAUGGAGACAUGCCCUUGGCAGCGUUACAUGAGGAUCACCCAUGUGGUGC [ETHA #6]", "CLASS LABEL": "class 0"}

Query: # bin lookup: classify GGUACAUGAGGAUCACCCAUGUAUGCGAGCCGAGGACCGGUACGGCCGCCACUCGCUUAACAUGAGGAUCACCCAUGUUUCUCGG [SSTA DOUBLE!!! :-D #15] by its apparent KD of MS2 coat protein
Reply: class 2

Query: Which of the defined bands does the recorded apparent KD of MS2 coat protein of UCACGGCACUGAAGGAGCGAGUUGACAAACAUGAGGAUCACCCAUGUUAUGGGUUGUUAAUCUCAGGUAGGUCGCAGUUGUCGUG [Same State Arginine B GF 21] sit within?
Reply: class 2

Query: Using the reported apparent KD of MS2 coat protein, which band applies to CAUCAUGGGCUUGGACAAAUUGUGCUUGAUACCAGAAAUCACCGGUUCCCUUGGCAGCAACCCACAUGAGGAUCACCCAUGUGGA [theeternabot_exclusion_MS2_Theo_A_4] ?
Reply: class 0

Query: Category of GUAUAGUCUCGAAGGAGCGUCACAUGAGGAUCACCCAUGUACAUGAGGAUCACCCAUGUGUGGCAGGUAGGUCGCGAGCUAUACC [Exclusion Arginine B GF8] :
Reply: class 2

Query: Which class holds CCAUAUGUAACUGAUACCAGUGUACUGACAUGAGGAUCACCCAUGUUGGGUUUUGUUGUACACCCUUGGCAGCAGAAUCAUAUGG [AstrosExyTheB#17] ?
Reply: class 2

Query: The entry to classify is CGGUACAUGAGGAUCACCCAUGUGUCGGAUACCAGAGAGCCGUCUCUCCCUUGGCAGCUGGUUUUACAUGAGGAUCACCCAUGUG [Exclusion Theophylline A GF20] ; which class holds it?
Reply: class 0

Query: Exam item: assign GUCAGUAGAACAGAUACCAGUCAAAAGCUGUGAUCUCAUAACAUGAGGAUCACCCAUGUUGACCCUUGGCAGCUGUGGGCGAGGG [#19 Exclusion-TheophyllineB] to the correct category.
Reply: class 1

Query: Just checking, what class would you give AAACAUGAGGAUCACCCAUGUAAUUCAGAAGGAGCGUCAUUAUUGACAGGUAGGUCGCUGAUAAAAUUUCUAUACAUCAUGUAUA [JR_SSArginiA_Sub013] here?
Reply: class 0

Query: Classify this sequence: UGGUACAUGAGGAUCACCCAUGUUCCAGAUACCAGUGUCCCGCUGCACCCUUGGCAGCUGGUGGUACAUGAGGAUCACCCAUGUG [Exclusion Theophylline A GF11]
Reply: class 1

Query: Lab note: sort UUUUUCGCGUUUGAUACCAGCAGAGUUGUUCUGGUCUGGUACAUGAGGAUCACCCAUGUCUGCCCUUGGCAGCAAACGGGAGAAG [XTheo #30] into the matching apparent KD of MS2 coat protein band.
Reply: class 0

Query: Which class is correct for the following sequence? CGGUAACCACAUGAGGAUCACCCAUGUGAAGGAGCGGCGAAUAAGCCAGGUAGGUCGCGCAUGAAUAAAUCAUGUAGGUGCCGAA [XArg-A 15 NuPack]
Reply: class 2

Query: Bin this entry: GCUUGGGUGGCACAGCCCUGGCAGUGCGAUACCAGCACGGUAACGUGCCCUUGGCAGCGCACAUGAGGAUCACCCAUGUGGUGCG [#1 Exclusion - Theophylline A Attempt #25 (HarryS)]
Reply: class 1

Query: Assign a bin to GGUUAACAUGAGGAUCACCCAUGUCUUGAUACCAGUCGUUAUCUUGACCCUUGGCAGCAAGAUGACCGUUAGCAGCCGUCUUCUC [theeternabot_sameState_MS2_Theo_A_45]
Reply: class 0

Query: Field: class (apparent KD of MS2 coat protein) — entry: AGACAUGAGGAUCACCCAUGUAGUAUGGAUACCAGAUCCAGAUUUAUCCCUUGGCAGCUGUGGUACAGCGUUGCAUCGCUCCUAG [Exclusion - Theophylline A (Freestyle 13)]
Reply: class 1

Query: Hi there! Could you help me figure out the category for GGAUAGGACACGGCCGCCACUGCCUAGGAUACUAGCAACAUUUGGGUACAAGAGGAUCACCCUUGUAGGACCGGGUGUCCUAUCG please?
Reply: class 1
